The reported measurements were obtained from ChEMBL document CHEMBL1201862.

measured-on: Voltage-dependent T-type calcium channel subunit alpha-1H (Homo sapiens, UniProt O95180)
Sequence (O95180 whole entry): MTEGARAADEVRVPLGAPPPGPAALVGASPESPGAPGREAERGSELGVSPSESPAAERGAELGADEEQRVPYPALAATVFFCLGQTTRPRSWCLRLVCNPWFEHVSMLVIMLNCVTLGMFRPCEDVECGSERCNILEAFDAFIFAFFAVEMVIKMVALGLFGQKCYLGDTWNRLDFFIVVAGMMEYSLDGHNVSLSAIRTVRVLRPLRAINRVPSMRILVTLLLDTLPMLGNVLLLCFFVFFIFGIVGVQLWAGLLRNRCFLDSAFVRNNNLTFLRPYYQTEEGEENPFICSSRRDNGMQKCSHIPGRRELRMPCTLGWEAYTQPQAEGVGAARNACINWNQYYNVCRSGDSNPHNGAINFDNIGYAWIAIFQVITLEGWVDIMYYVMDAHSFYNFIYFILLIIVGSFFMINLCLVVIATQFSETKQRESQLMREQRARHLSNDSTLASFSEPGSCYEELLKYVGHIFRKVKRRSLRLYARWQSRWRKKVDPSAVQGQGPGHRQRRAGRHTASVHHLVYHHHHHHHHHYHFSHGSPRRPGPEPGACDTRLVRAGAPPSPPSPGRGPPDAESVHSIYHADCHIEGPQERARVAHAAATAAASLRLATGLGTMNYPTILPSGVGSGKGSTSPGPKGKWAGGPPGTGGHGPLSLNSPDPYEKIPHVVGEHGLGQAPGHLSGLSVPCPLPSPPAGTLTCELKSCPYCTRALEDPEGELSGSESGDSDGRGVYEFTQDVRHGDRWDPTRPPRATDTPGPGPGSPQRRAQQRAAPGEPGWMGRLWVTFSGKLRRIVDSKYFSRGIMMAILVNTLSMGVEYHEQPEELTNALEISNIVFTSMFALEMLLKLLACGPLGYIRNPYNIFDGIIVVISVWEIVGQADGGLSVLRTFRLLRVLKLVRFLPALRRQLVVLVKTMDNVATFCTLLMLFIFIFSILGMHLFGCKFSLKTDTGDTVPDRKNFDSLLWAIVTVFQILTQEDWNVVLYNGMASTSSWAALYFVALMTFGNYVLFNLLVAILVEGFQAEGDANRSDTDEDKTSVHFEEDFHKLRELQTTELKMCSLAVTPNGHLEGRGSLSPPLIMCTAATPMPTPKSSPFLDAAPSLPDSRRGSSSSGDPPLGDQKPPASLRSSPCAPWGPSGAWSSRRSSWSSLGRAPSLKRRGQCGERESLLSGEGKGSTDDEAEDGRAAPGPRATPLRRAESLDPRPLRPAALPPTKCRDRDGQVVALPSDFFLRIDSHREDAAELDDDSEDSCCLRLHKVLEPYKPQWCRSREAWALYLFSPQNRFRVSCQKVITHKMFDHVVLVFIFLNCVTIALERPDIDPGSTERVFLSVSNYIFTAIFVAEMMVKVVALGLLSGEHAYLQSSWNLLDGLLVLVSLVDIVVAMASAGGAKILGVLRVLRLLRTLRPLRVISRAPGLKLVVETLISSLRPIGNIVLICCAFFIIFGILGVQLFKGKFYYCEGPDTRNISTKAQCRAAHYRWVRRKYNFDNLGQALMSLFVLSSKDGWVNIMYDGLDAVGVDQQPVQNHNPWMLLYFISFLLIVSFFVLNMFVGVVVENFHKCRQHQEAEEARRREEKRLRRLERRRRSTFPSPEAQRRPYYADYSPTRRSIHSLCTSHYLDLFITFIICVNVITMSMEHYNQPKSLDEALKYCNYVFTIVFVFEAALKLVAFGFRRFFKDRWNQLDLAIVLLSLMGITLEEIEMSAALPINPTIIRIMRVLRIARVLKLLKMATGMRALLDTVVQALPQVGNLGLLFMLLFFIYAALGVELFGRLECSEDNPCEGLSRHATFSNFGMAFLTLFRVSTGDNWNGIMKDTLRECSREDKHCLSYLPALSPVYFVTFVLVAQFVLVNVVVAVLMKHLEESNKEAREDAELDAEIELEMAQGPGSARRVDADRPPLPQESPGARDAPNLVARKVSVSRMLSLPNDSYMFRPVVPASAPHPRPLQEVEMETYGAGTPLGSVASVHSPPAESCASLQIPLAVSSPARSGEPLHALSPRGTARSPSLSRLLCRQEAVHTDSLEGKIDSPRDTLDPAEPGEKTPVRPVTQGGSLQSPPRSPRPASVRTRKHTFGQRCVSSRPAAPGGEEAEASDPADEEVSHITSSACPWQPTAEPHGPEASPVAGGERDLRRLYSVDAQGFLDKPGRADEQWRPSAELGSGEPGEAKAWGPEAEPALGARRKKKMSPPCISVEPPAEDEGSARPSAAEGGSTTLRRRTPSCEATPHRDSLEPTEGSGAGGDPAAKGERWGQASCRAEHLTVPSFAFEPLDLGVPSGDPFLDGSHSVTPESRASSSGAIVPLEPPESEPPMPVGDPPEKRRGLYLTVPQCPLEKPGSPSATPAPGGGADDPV
Type: functional
Calls of active or inactive are those of the source.
quantity-kind: EC50

compound=CCn1c(SCc2nc(-c3ccccc3)no2)nc2ccccc21 val="331000 nM (active)"
compound=CC(C)(C)C(=O)c1sc2nc(-c3cccs3)cc(C(F)(F)F)c2c1N val="2590 nM (active)"
compound="O=C(NCc1ccc2c(c1)OCO2)C1CC(c2cccc(Br)c2)=NO1 (stereo not given)" val="1960 nM (active)"
compound=CN(C)S(=O)(=O)N(CC(=O)Nc1ccc2ccccc2c1)c1ccccc1 val="3790 nM (active)"
compound="CCCC(c1nnnn1Cc1ccco1)N1CCN(c2cc(Cl)ccc2C)CC1 (stereo not given)" val="728 nM (active)"
